- Tested on: Human immunodeficiency virus 1
- test_protocol: Antiviral activity against efavirenz-resistant HIV1 harboring RT 100I, 103R, 179D, 225H mutant infected in human MT4 cells assessed as inhibition of virus-induced cytopathogenicity after 4 days by MTT assay
- Format: functional, organism-based
- condition: Human immunodeficiency virus 1, MT4
parameter_measured: pEC50
Numbers only, as −log10 of the molar value.

Answered examples (3):
molecule="CCOCn1c(C(F)c2cc(C)cc(C)c2)c(CC)c(=O)[nH]c1=O (stereo not given)" target_or_system="Human immunodeficiency virus 1" parameter_measured=pEC50 endpoint_result=5.22
molecule=CC(C)(C)NC(=O)[C@@H]1C[C@@H]2CCCC[C@@H]2CN1C[C@@H](O)[C@H](Cc1ccccc1)NC(=O)[C@H](CC(N)=O)NC(=O)c1ccc2ccccc2n1 target_or_system="Human immunodeficiency virus 1" parameter_measured=pEC50 endpoint_result=8.00
molecule="CCc1c(C(F)c2cc(C)cc(C)c2)n(COCc2ccc(C#CCO)cc2)c(=O)[nH]c1=O (stereo not given)" target_or_system="Human immunodeficiency virus 1" parameter_measured=pEC50 endpoint_result=7.00

For every listed record, write down its pEC50.
1. O=C1Nc2ccc(Cl)cc2[C@@](C#CC2CC2)(C(F)(F)F)O1
2. CCOCn1c(Cc2ccccc2)c(C(C)C)c(=O)[nH]c1=O
3. Cc1c(C(C)c2c(F)cccc2F)nc(N(C)C)[nH]c1=O (stereo not given)
4. C=C(C)COCn1c(C(F)c2cc(C)cc(C)c2)c(CC)c(=O)[nH]c1=O (stereo not given)
5. Cc1cn([C@H]2C[C@H](N=[N+]=[N-])[C@@H](CO)O2)c(=O)[nH]c1=O

result:
[5.22, 4.00, 5.70, 5.40, 8.00]

For every listed record, write down its pEC50.
1. CCc1c(C(F)c2cc(C)cc(C)c2)n(COCc2ccc(I)cc2)c(=O)[nH]c1=O (stereo not given)
2. C=CCOCn1c(C(F)c2cc(C)cc(C)c2)c(CC)c(=O)[nH]c1=O (stereo not given)
3. CCc1c(C(F)c2cc(C)cc(C)c2)n(COCc2ccc(C#CC=O)cc2)c(=O)[nH]c1=O (stereo not given)
4. Cc1cc(C)c(Nc2ccnc(Nc3ccc(C#N)cc3)n2)c(C)c1
5. Cc1cc(C#N)cc(C)c1Oc1nc(Nc2ccc(C#N)cc2)nc(N)c1Br

result:
1: 5.85; 2: 5.70; 3: 5.62; 4: 6.70; 5: 6.52

====

- System: Human immunodeficiency virus 1
- test_protocol: Antiviral activity against wild type HIV1 3B infected in human MT4 cells assessed as inhibition of virus-induced cytopathogenicity after 4 days by MTT assay
- Format: functional, organism-based
- condition: Human immunodeficiency virus 1, 3B, MT4, 96 h
Lab note: anything with EC50 below 10 nM is marked t; values at 10 nM or higher are marked f.

Consider the worked cases shown below.
compound="Cc1c(C(C)c2c(F)cccc2F)nc(N(C)C)[nH]c1=O (stereo not drawn)" classification=t
compound="CCc1c(C(F)c2cc(C)cc(C)c2)n(COCc2ccc(C#CC=O)cc2)c(=O)[nH]c1=O (stereo not drawn)" classification=f
compound=CC(C)(C)NC(=O)[C@@H]1C[C@@H]2CCCC[C@@H]2CN1C[C@@H](O)[C@H](Cc1ccccc1)NC(=O)[C@H](CC(N)=O)NC(=O)c1ccc2ccccc2n1 classification=f
compound="CCc1c(C(F)c2cc(C)cc(C)c2)n(COCc2ccc(I)cc2)c(=O)[nH]c1=O (stereo not drawn)" classification=f
compound="Cc1cc(C)c(Nc2ccnc(Nc3ccc(C#N)cc3)n2)c(C)c1 [DAPIVIRINE]" classification=t

query: # TODO verify EC50 < 10 nM strictly for this compound: C=CCOCn1c(C(F)c2cc(C)cc(C)c2)c(CC)c(=O)[nH]c1=O (stereo not drawn)
result: t

query: # TODO verify EC50 < 10 nM strictly for this compound: CCc1c(C(F)c2cc(C)cc(C)c2)n(COCc2ccc(C#CCO)cc2)c(=O)[nH]c1=O (stereo not drawn)
result: t
